# TARGET_SYSTEM: MyD88^TIR (Homo sapiens)
# Construct: MyD88 (residues 148–296); 6xHis; made in house; host or cells: E. coli BL21 (DE3)
# Sequence (Q99836 148-296): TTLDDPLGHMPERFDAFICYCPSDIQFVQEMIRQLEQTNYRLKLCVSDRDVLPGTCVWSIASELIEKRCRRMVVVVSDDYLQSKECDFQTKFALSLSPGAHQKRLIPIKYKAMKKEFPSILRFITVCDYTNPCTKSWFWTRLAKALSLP
# MEASUREMENT_NOTES: T‐Surf phage library (P8 and P3) selection against MyD88^TIR, four rounds, NGS read counts
# Assay type: binding
# CONDITION: P8 library, selection against MyD88 TIR; rank by count before grouping
Values of P8_MyD88 Rank (before) strictly less than 500 map to Yes, and values of at least 500 map to No.

SEQ_STRING: HFAFSSWALDELANIL
GROUP: No
//
SEQ_STRING: DPQDLDWVYERLVSLI
GROUP: No
//
SEQ_STRING: DYASSSWYLDELVHILW
GROUP: No
//
SEQ_STRING: DPQDLDWFYERLLSR
GROUP: Yes
//
SEQ_STRING: LKVESWRQALEKAGKL
GROUP: Yes
//
SEQ_STRING: WALNELLEIMQAKRDL
GROUP: Yes
//
SEQ_STRING: DSLFWDRLLYSLHVT
GROUP: Yes
//
SEQ_STRING: WALSELVEILRARENM
GROUP: Yes
//
SEQ_STRING: WDFASNMAQSWDRLYY
GROUP: No
//
SEQ_STRING: AFSHWALVELLEAIEQ
GROUP: Yes
